# Test system: human peripheral blood mononuclear cells (PBMCs)
# METHOD DESCRIPTION: Human PBMC activation assay, cytokine levels (IL-10, IL-6, MCP-1, TNF-α) in supernatant after 24 hours (Example 9)
# ASSAY SETUP: human PBMC supernatant after 24 hours; 0.32 μM oligonucleotide
Levels of IL-10 overview
READOUT LABEL: Levels of IL-10

[[record]]
substance = "829994 (GGAGGCAGGGCCGCGA; 3-10-3 cEt gapmer, further chemistry not given here) [compound 829994]"
assay_value = "1.8 pg/mL"

[[record]]
substance = "830025 (antisense TTTGTAAATCGAAAGC; 3-10-3 cEt gapmer, further chemistry not given here) [compound 830025]"
assay_value = "2.6 pg/mL"

[[record]]
substance = "798781 (CGTAAGATTCACAGCA; 3-10-3 cEt gapmer, further chemistry not given here) [compound 798781]"
assay_value = "2.3 pg/mL"

[[record]]
substance = "830037 (antisense CTATTGGCTGATCTGG; 3-10-3 cEt gapmer, further chemistry not given here) [compound 830037]"
assay_value = "8.2 pg/mL"

[[record]]
substance = "790615 (CCAATGAGAATGCTTC; 3-10-3 cEt gapmer, further chemistry not given here) [compound 790615]"
assay_value = "2.4 pg/mL"

[[record]]
substance = "736697 (antisense GTCGCCCCTTCTCCCCGCAGC; chemistry not fully specified) [compound 736697]"
assay_value = "3.5 pg/mL"

[[record]]
substance = "830121 (AGAATCAAGCCCTGGC; 3-10-3 cEt gapmer, further chemistry not given here) [compound 830121]"
assay_value = "1.3 pg/mL"

